# Tested on: HOP-62
# TEST_DESCRIPTION: NCI single-dose growth inhibition screen
# Type: cell-based
# CONDITION_DESCRIPTION: Homo sapiens; Non-Small Cell Lung Cancer HOP-62; single dose 10^−5 M

>  <COMPOUND>
COc1ccc(/C=C2\SC(=O)N(CCCC(=O)N3CCN(c4cc5c(cc4F)c(=O)c(C(=O)O)cn5C4CC4)CC3)C2=O)cc1OC [3f]

>  <RESULT_OPERATOR>
<

>  <inhibition at 10 µM / %>
0

$$$$
>  <COMPOUND>
O=C(O)c1cn(C2CC2)c2cc(N3CCN(C(=O)CCCN4C(=O)SC(=Cc5ccccc5)C4=O)CC3)c(F)cc2c1=O [3a]

>  <RESULT_OPERATOR>
<

>  <inhibition at 10 µM / %>
0

$$$$
>  <COMPOUND>
O=C(O)c1cn(C2CC2)c2cc(N3CCN(C(=O)CCCN4C(=O)S/C(=C\c5ccc([N+](=O)[O-])cc5)C4=O)CC3)c(F)cc2c1=O [3k]

>  <RESULT_OPERATOR>
=

>  <inhibition at 10 µM / %>
19.7

$$$$
>  <COMPOUND>
O=C(O)c1cn(C2CC2)c2cc(N3CCN(C(=O)CCCN4C(=O)SC(=Cc5cccc6ccccc56)C4=O)CC3)c(F)cc2c1=O [3j]

>  <RESULT_OPERATOR>
=

>  <inhibition at 10 µM / %>
15.1

$$$$

###

# Test system: P. aeruginosa ATCC 27,853
# TEST_DESCRIPTION: Antibacterial screening, agar cup diffusion method
# Type: cell-based
# CONDITION_DESCRIPTION: Pseudomonas aeruginosa, ATCC27; Gram –ve strain; read-out: Minimum inhibitory concentrations (MIC, µM) P. aeruginosa ATCC 27,853
METRIC: MIC

>  <COMPOUND>
O=C(O)c1cn(C2CC2)c2cc(N3CCN(C(=O)CCCN4C(=O)S/C(=C\c5ccc([N+](=O)[O-])cc5)C4=O)CC3)c(F)cc2c1=O [3k]

>  <SYSTEM_NAME>
P. aeruginosa ATCC 27,853

>  <METRIC>
MIC

>  <RESULT>
> 20 µM

$$$$
>  <COMPOUND>
O=C(O)c1cn(C2CC2)c2cc(N3CCN(C(=O)CCCN4C(=O)SC(=Cc5cccc([N+](=O)[O-])c5)C4=O)CC3)c(F)cc2c1=O [3d]

>  <SYSTEM_NAME>
P. aeruginosa ATCC 27,853

>  <METRIC>
MIC

>  <RESULT>
0.87 µM

$$$$
>  <COMPOUND>
O=C(O)c1cn(C2CC2)c2cc(N3CCN(C(=O)CCCN4C(=O)S/C(=C\c5ccc(Cl)cc5)C4=O)CC3)c(F)cc2c1=O [3 h]

>  <SYSTEM_NAME>
P. aeruginosa ATCC 27,853

>  <METRIC>
MIC

>  <RESULT>
> 20 µM

$$$$
>  <COMPOUND>
O=C(O)c1cn(C2CC2)c2cc(N3CCN(C(=O)CCCN4C(=O)SC(=Cc5cccc6ccccc56)C4=O)CC3)c(F)cc2c1=O [3j]

>  <SYSTEM_NAME>
P. aeruginosa ATCC 27,853

>  <METRIC>
MIC

>  <RESULT>
> 20 µM

$$$$
>  <COMPOUND>
O=C(O)c1cn(C2CC2)c2cc(N3CCN(C(=O)CCCN4C(=O)SC(=Cc5ccccc5)C4=O)CC3)c(F)cc2c1=O [3a]

>  <SYSTEM_NAME>
P. aeruginosa ATCC 27,853

>  <METRIC>
MIC

>  <RESULT>
> 20 µM

$$$$
